Experiment: basal MM1S mitochondrial membrane potential changes, profiling panel, cell-based, JC-1 fluorescence, 24 h, 100 nL compound (AID 1170); also: test concentration not given here
Details: higher = more signal
Answer f if z-score is under -0.6, and t if it is -0.6 or more.

- molecule: "O=C1N(CCS(=O)(=O)c2ccccc2)Cc2ccccc2[C@H]2OC(c3ccc(OCCCO)cc3)=N[C@@]12CCS(=O)(=O)c1ccccc1"
  qualitative-label: "f"

IN: Check this molecule for z-score at or above -0.6: C=CC[C@]1(C(=O)N2CCOCC2)N=C(c2ccc(OCCCO)cc2)O[C@H]1c1ccccc1
OUT: t

IN: Record: O=C1OCCC=C[C@H]2OC34C=CCN(Cc5ccccc5)C(=O)[C@H]3N(CCCCCO)C(=O)[C@@H]4C12 (stereo partly drawn)
OUT: f

IN: Record: CC(C)c1ccc(NN2C(C(O)c3cccc(O)c3)C=CC3C(=O)N(c4ccccc4)C(=O)C32)cc1 (stereo not drawn)
OUT: f

IN: Record: O=C1O[C@@H](c2ccccc2)[C@@H](c2ccccc2)N2[C@@H](c3ccc(OCCO)cc3)[C@]3(C(=O)Nc4ccccc43)[C@@H](C(=O)Nc3nc4ccccc4s3)[C@H]12
OUT: f

IN: Record: C[N+](C)(C)CCCCCCNC(=O)[C@H]1C[C@H]2C(=O)N3CCC[C@H]3C(=O)N2[C@H]1c1ccc(O)cc1
OUT: t

IN: Record: O=C1O[C@@H](c2ccccc2)[C@@H](c2ccccc2)N2[C@@H](c3ccccc3OCCO)[C@]3(C(=O)Nc4ccc(C#CC5(O)CCCCCC5)cc43)[C@@H](C(=O)Nc3nc4ccccc4s3)[C@H]12
OUT: f

IN: Record: COC(=O)[C@@]1(Cc2ccc(OC)cc2)[C@H]2c3cc(C(=O)N4CCCC4)n(Cc4cc(F)cc5c4OCOC5)c3C[C@H]2CN1C(=O)c1ccccc1
OUT: f

IN: Record: COCCOC(=O)N1C(=O)[C@@]2(c3cc(C#CCNC(N)=O)ccc31)[C@H](c1ccc(O)cc1)N1[C@H](c3ccccc3)[C@H](c3ccccc3)OC(=O)[C@H]1[C@@H]2C(=O)NC[C@H](O)c1ccccc1
OUT: t

IN: Record: C=CCOC(=O)[C@@H]1[C@H]2C(=O)O[C@H](c3ccccc3)[C@H](c3ccccc3)N2[C@H](c2ccc(OCCOC(=O)[C@@H]3C[C@@H]4C(=O)NCC(=O)N4[C@@H]3c3cccc(OCCO)c3)cc2)[C@@]12C(=O)Nc1ccc(I)cc12
OUT: f

IN: Record: CC(C)(C)OC(=O)CC[C@@]1(C(=O)O)N=C(c2ccc(OCCCO)cc2)O[C@@H]1c1ccccc1N=[N+]=[N-]
OUT: f

IN: Record: CCN(CC)c1ccc(N2CC=CC34O[C@@H]5/C=C\CCCOC(=O)C5[C@H]3C(=O)N(C(CO)C(C)C)[C@@H]4C2=O)cc1 (stereo partly drawn)
OUT: t

----------
Experiment: binders of probe aFGF10 on microarray, primary screen, stem cell growth factor project, biochemical, small-molecule microarray, fluorescence 635/667 (AID 1071);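 also: score merges 667 nm spot intensity and signal to noise from triplicate slides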
Details: higher = more signal
result-type: composite z-score
Keep it simple and answer with nothing but the number.

- compound: "CCC[C@@H]1C=C(C(=O)O)[C@H](c2ccc(C)cc2)N1S(=O)(=O)c1ccc(C)cc1"
  composite z-score: 0.854
- compound: "COCCOC(=O)N1C(=O)[C@@]2(c3cc(C#CCNC(N)=O)ccc31)[C@H](c1ccc(O)cc1)N1[C@H](c3ccccc3)[C@H](c3ccccc3)OC(=O)[C@H]1[C@@H]2C(=O)NC[C@H](O)c1ccccc1"
  composite z-score: 0.846
- compound: "CCOC(=O)C1=CC[C@@H](c2ccccc2Cl)N(S(=O)(=O)c2ccc(C)cc2)C1"
  composite z-score: 0.435
- compound: "Cc1ccc([C@H]2C(C(=O)O)=C[C@@H](C)N2S(=O)(=O)c2ccc(C)cc2)cc1"
  composite z-score: -0.337
- compound: "COCCOC(=O)N1C(=O)[C@@]2(c3cc(C#CCC(C(=O)OC)C(=O)OC)ccc31)[C@H](C(=O)N1CCN(c3ncccn3)CC1)[C@H]1C(=O)O[C@H](c3ccccc3)[C@H](c3ccccc3)N1[C@@H]2c1ccc(OCCO)cc1"
  composite z-score: 0.0875

Shift focus to the following entry.
IN: Tell me the measured composite z-score of O=C1O[C@@H](c2ccccc2)[C@@H](c2ccccc2)N2[C@@H](c3ccc(OCCO)cc3)[C@]3(C(=O)Nc4ccc(C#CC5=CCCCC5)cc43)[C@@H](C(=O)O)[C@H]12 , please.
OUT: 0.506
